Documented EC50 across a set of compounds
- Measurement Target: Melanocyte-stimulating hormone receptor (Homo sapiens, UniProt Q01726)
- Experimental Details: Agonist activity at human MC1R expressed in CHO cells after 4 hrs by luciferase reporter gene assay
- Format: functional, cell-based
- Experimental Context: read-out: pEC50 (converted)
- Sequence (Q01726 whole entry): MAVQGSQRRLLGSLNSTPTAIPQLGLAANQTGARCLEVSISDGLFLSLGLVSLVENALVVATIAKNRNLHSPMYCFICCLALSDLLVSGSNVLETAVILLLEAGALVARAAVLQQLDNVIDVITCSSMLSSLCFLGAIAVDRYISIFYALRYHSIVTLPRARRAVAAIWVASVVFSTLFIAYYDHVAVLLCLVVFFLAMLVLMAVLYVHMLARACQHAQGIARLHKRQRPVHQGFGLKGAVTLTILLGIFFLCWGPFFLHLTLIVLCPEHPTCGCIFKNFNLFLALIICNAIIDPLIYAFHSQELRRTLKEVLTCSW

# Compound, Measurement Target, EC50 / nM
rows = [
    ("CC(C)N(C(=O)CN1C=CN(c2ccccc2)C(=O)C(Cc2n[nH]c3ccccc23)C1=O)c1ccc(O)cc1 (single isomer, unassigned; form 2)", "Melanocyte-stimulating hormone receptor (Homo sapiens, UniProt Q01726)", 52.5),
    ("COC1(Cc2n[nH]c3ccccc23)C(=O)N(CC(=O)N(c2ccc(F)cc2)C(C)C)C=CN(c2ccccc2)C1=O (racemic)", "Melanocyte-stimulating hormone receptor (Homo sapiens, UniProt Q01726)", 2950),
    ("CC(C)N(C(=O)CN1C=CN(c2ccccc2)C(=O)[C@H](Cc2n[nH]c3ccccc23)C1=O)c1ccccc1", "Melanocyte-stimulating hormone receptor (Homo sapiens, UniProt Q01726)", 295),
    ("O=C1[C@@H](Cc2n[nH]c3ccccc23)C(=O)N(c2ccccc2)C=CN1CC(=O)N1CCCCc2ccccc21", "Melanocyte-stimulating hormone receptor (Homo sapiens, UniProt Q01726)", 1.58),
    ("CC(C)N(C(=O)CN1C=CN(c2ccccc2)C(=O)[C@H](Cc2n[nH]c3cc(F)ccc23)C1=O)c1ccccc1", "Melanocyte-stimulating hormone receptor (Homo sapiens, UniProt Q01726)", 35.5),
    ("CC(C)N(C(=O)CN1C=CN(C)C(=O)C(Cc2n[nH]c3cc(F)ccc23)C1=O)c1ccc(F)cc1 (racemic)", "Melanocyte-stimulating hormone receptor (Homo sapiens, UniProt Q01726)", 3720),
    ("COc1ccc(N(C(=O)CN2C=CN(c3cccnc3)C(=O)C(Cc3n[nH]c4ccccc34)C2=O)C(C)C)cc1 (racemic)", "Melanocyte-stimulating hormone receptor (Homo sapiens, UniProt Q01726)", 178),
    ("CC(C)N(C(=O)CN1C=CN(c2ccccc2)C(=O)C(Cc2n[nH]c3ccccc23)C1=O)c1ccccc1 (racemic)", "Melanocyte-stimulating hormone receptor (Homo sapiens, UniProt Q01726)", 708),
    ("COc1ccc(N(C(=O)CN2C=CN(c3ccccc3)C(=O)[C@H](Cc3n[nH]c4ccccc34)C2=O)C(C)C)cc1", "Melanocyte-stimulating hormone receptor (Homo sapiens, UniProt Q01726)", 15.8),
    ("COc1ccc(N(C(=O)CN2C=CN(Cc3ccccc3)C(=O)C(Cc3n[nH]c4ccccc34)C2=O)C(C)C)cc1 (racemic)", "Melanocyte-stimulating hormone receptor (Homo sapiens, UniProt Q01726)", 794),
    ("COc1ccc(N(C(=O)CN2C=CN(c3ccccc3)C(=O)[C@@H](Cc3n[nH]c4ccccc34)C2=O)C(C)C)cc1", "Melanocyte-stimulating hormone receptor (Homo sapiens, UniProt Q01726)", 1550),
    ("COc1ccc(N(C(=O)CN2C=CN(c3ccccc3)C(=O)C(Cc3cc[nH]n3)(Cc3n[nH]c4ccccc34)C2=O)C(C)C)cc1 (racemic)", "Melanocyte-stimulating hormone receptor (Homo sapiens, UniProt Q01726)", 398),
    ("CC(C)N(C(=O)CN1C=CN(c2ccccc2)C(=O)C(Cc2n[nH]c3ccccc23)C1=O)c1ccc(O)cc1 (racemic)", "Melanocyte-stimulating hormone receptor (Homo sapiens, UniProt Q01726)", 550),
    ("O=C1[C@H](Cc2n[nH]c3ccccc23)C(=O)N(c2ccccc2)C=CN1CC(=O)N1CCCCc2ccccc21", "Melanocyte-stimulating hormone receptor (Homo sapiens, UniProt Q01726)", 61.7),
    ("COc1ccc(N(C(=O)CN2C=CN(c3ccccc3)C(=O)C(Cc3n[nH]c4ccccc34)(OC)C2=O)C(C)C)cc1 (racemic)", "Melanocyte-stimulating hormone receptor (Homo sapiens, UniProt Q01726)", 1380),
]

* * *

- Measurement Target: Melanocyte-stimulating hormone receptor (Homo sapiens, UniProt Q01726)
- Experimental Details: Agonist activity at human MC1R expressed in CHO cells after 4 hrs by luciferase reporter gene assay relative to alpha-melanocyte stimulating hormone
- Format: functional, cell-based
- Parameters: concentration or dose not given beside the values
- Sequence (Q01726 whole entry, looked up): as the sequence (Q01726 whole entry) above
Documented Activity across a set of molecules
Metric Name: Activity (%)

# Molecule, Measurement Target, Metric Name, Result Unit, Quantitative Readout
records = [
    ("CC(C)N(C(=O)CN1C=CN(c2ccccc2)C(=O)C(Cc2n[nH]c3ccccc23)C1=O)c1ccc(OC(F)(F)F)cc1 (racemic)", "Melanocyte-stimulating hormone receptor (Homo sapiens, UniProt Q01726)", "Activity", "%", 91),
    ("CC(C)N(C(=O)CN1C=CN(c2ccccc2)C(=O)C(Cc2n[nH]c3cc(F)ccc23)C1=O)c1ccc(F)cc1 (racemic)", "Melanocyte-stimulating hormone receptor (Homo sapiens, UniProt Q01726)", "Activity", "%", 53),
    ("CC(C)N(C(=O)CN1C=CN(c2ccccc2)C(=O)C(Cc2n[nH]c3ccccc23)C1=O)c1ccc(O)cc1 (single isomer, unassigned; form 1)", "Melanocyte-stimulating hormone receptor (Homo sapiens, UniProt Q01726)", "Activity", "%", 79),
    ("CC(C)N(C(=O)CN1C=CN(c2ccccc2)C(=O)C(Cc2n[nH]c3ccccc23)C1=O)c1ccc(F)cc1 (racemic)", "Melanocyte-stimulating hormone receptor (Homo sapiens, UniProt Q01726)", "Activity", "%", 54),
    ("O=C1[C@@H](Cc2n[nH]c3ccccc23)C(=O)N(c2ccccc2)C=CN1CC(=O)N1CCCCc2ccccc21", "Melanocyte-stimulating hormone receptor (Homo sapiens, UniProt Q01726)", "Activity", "%", 86),
    ("COc1ccc(N(C(=O)CN2C=CN(c3ccccc3)C(=O)C(Cc3cc[nH]n3)(Cc3n[nH]c4ccccc34)C2=O)C(C)C)cc1 (racemic)", "Melanocyte-stimulating hormone receptor (Homo sapiens, UniProt Q01726)", "Activity", "%", 30),
    ("CC(C)N(C(=O)CN1C=CN(c2ccccc2)C(=O)C(Cc2n[nH]c3ccccc23)C1=O)c1ccccc1 (racemic)", "Melanocyte-stimulating hormone receptor (Homo sapiens, UniProt Q01726)", "Activity", "%", 42),
    ("COc1ccc(N(C(=O)CN2C=CN(c3ccccc3)C(=O)C(Cc3n[nH]c4ccccc34)C2=O)C(C)C)cc1 (racemic)", "Melanocyte-stimulating hormone receptor (Homo sapiens, UniProt Q01726)", "Activity", "%", 68),
    ("COc1ccc(N(C(=O)CN2C=CN(c3ccccc3)C(=O)C(Cc3n[nH]c4ccccc34)(OC)C2=O)C(C)C)cc1 (racemic)", "Melanocyte-stimulating hormone receptor (Homo sapiens, UniProt Q01726)", "Activity", "%", 58),
    ("O=C1C(Cc2n[nH]c3ccccc23)C(=O)N(c2ccccc2)C=CN1CC(=O)N1CCCCc2ccccc21 (racemic)", "Melanocyte-stimulating hormone receptor (Homo sapiens, UniProt Q01726)", "Activity", "%", 61),
    ("COc1ccc(N(C(=O)CN2C=CN(c3cccnc3)C(=O)C(Cc3n[nH]c4cc(F)ccc34)C2=O)C(C)C)cc1 (racemic)", "Melanocyte-stimulating hormone receptor (Homo sapiens, UniProt Q01726)", "Activity", "%", 65),
    ("COc1ccc(N(C(=O)CN2C=CN(Cc3ccccc3)C(=O)C(Cc3n[nH]c4ccccc34)C2=O)C(C)C)cc1 (racemic)", "Melanocyte-stimulating hormone receptor (Homo sapiens, UniProt Q01726)", "Activity", "%", 59),
    ("COC1(Cc2n[nH]c3ccccc23)C(=O)N(CC(=O)N(c2ccc(F)cc2)C(C)C)C=CN(c2ccccc2)C1=O (racemic)", "Melanocyte-stimulating hormone receptor (Homo sapiens, UniProt Q01726)", "Activity", "%", 33),
    ("COc1ccc(N(C(=O)CN2C=CN(c3ccccc3)C(=O)[C@H](Cc3n[nH]c4ccccc34)C2=O)C(C)C)cc1", "Melanocyte-stimulating hormone receptor (Homo sapiens, UniProt Q01726)", "Activity", "%", 82),
]

* * *

- Measurement Target: Melanocortin receptor 4 (Homo sapiens)
- Sequence (P32245 whole entry): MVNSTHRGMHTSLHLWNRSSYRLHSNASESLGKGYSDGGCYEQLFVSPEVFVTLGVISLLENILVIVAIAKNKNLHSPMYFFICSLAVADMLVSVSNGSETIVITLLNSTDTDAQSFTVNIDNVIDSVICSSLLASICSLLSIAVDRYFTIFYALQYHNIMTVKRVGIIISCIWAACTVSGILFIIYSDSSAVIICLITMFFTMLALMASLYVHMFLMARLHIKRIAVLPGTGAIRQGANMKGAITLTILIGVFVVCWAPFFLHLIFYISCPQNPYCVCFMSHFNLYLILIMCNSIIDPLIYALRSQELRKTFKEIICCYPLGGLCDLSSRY
- Experimental Details: Agonist activity at human MC4R expressed in CHO cells at 10 uM after 4 hrs by luciferase reporter gene assay relative to alpha-melanocyte stimulating hormone
- Assay type: functional, cell-based

# Compound, Measurement Target, Result Unit, Efficacy
rows = [
    ("CC(C)N(C(=O)CN1C=CN(C)C(=O)C(Cc2n[nH]c3cc(F)ccc23)C1=O)c1ccc(F)cc1 (racemic)", "Melanocortin receptor 4 (Homo sapiens)", "%", 5),
    ("O=C(CN1C=CN(c2ccccc2)C(=O)C(Cc2n[nH]c3ccccc23)C1=O)CP(=O)(O)Oc1ccccc1 (racemic)", "Melanocortin receptor 4 (Homo sapiens)", "%", 4),
    ("CC(C)N(C(=O)CN1C=CN(c2ccccc2)C(=O)[C@@H](Cc2n[nH]c3cc(F)ccc23)C1=O)c1ccccc1", "Melanocortin receptor 4 (Homo sapiens)", "%", 0),
    ("COc1ccc(N(C(=O)CN2C=CN(c3ccccc3)C(=O)[C@@H](Cc3n[nH]c4ccccc34)C2=O)C(C)C)cc1", "Melanocortin receptor 4 (Homo sapiens)", "%", 14),
    ("COc1ccc(N(C(=O)CN2C=CN(Cc3ccccc3)C(=O)C(Cc3n[nH]c4ccccc34)C2=O)C(C)C)cc1 (racemic)", "Melanocortin receptor 4 (Homo sapiens)", "%", 6),
    ("CC(C)N(C(=O)CN1C=CN(c2ccccc2)C(=O)[C@@H](Cc2n[nH]c3ccccc23)C1=O)c1ccccc1", "Melanocortin receptor 4 (Homo sapiens)", "%", 3),
    ("COc1ccc(N(C(=O)CN2C=CN(C3CCCCC3)C(=O)C(Cc3n[nH]c4ccccc34)C2=O)C(C)C)cc1 (racemic)", "Melanocortin receptor 4 (Homo sapiens)", "%", 19),
    ("O=C(CN1C=CN(c2ccccc2)C(=O)C(Cc2n[nH]c3ccccc23)C1=O)CP(=O)(Oc1ccccc1)Oc1ccccc1 (racemic)", "Melanocortin receptor 4 (Homo sapiens)", "%", 5),
    ("CC(C)N(C(=O)CN1C=CN(c2ccccc2)C(=O)C(Cc2n[nH]c3ccccc23)C1=O)c1ccc(N2CCOCC2)cc1 (racemic)", "Melanocortin receptor 4 (Homo sapiens)", "%", 3),
    ("CCn1nc(CC2C(=O)N(CC(=O)N(c3ccc(OC)cc3)C(C)C)C=CN(c3ccccc3)C2=O)c2ccccc21 (racemic)", "Melanocortin receptor 4 (Homo sapiens)", "%", 5),
    ("COc1ccc(N(C(=O)CN2C=CN(C3CCCCC3)C(=O)C(Cc3ccccc3)C2=O)C(C)C)cc1 (racemic)", "Melanocortin receptor 4 (Homo sapiens)", "%", 0),
    ("COc1ccc(N(C(=O)CN2C=CN(c3ccccc3)C(=O)C(Cc3nn(C)c4ccccc34)C2=O)C(C)C)cc1 (racemic)", "Melanocortin receptor 4 (Homo sapiens)", "%", 5),
    ("CC(C)N(C(=O)CN1C=CN(c2ccccc2)C(=O)C(Cc2n[nH]c3ccccc23)C1=O)c1ccc(O)cc1 (single isomer, unassigned; form 2)", "Melanocortin receptor 4 (Homo sapiens)", "%", 5),
]

Data origin: ChEMBL document CHEMBL1157626
